Each recorded value in this set is attributed to ChEMBL document CHEMBL1146736.

Reported pIC50 values follow for various molecules
Target: Polyunsaturated fatty acid 5-lipoxygenase (Mus musculus, UniProt P48999)
Sequence (P48999 whole entry): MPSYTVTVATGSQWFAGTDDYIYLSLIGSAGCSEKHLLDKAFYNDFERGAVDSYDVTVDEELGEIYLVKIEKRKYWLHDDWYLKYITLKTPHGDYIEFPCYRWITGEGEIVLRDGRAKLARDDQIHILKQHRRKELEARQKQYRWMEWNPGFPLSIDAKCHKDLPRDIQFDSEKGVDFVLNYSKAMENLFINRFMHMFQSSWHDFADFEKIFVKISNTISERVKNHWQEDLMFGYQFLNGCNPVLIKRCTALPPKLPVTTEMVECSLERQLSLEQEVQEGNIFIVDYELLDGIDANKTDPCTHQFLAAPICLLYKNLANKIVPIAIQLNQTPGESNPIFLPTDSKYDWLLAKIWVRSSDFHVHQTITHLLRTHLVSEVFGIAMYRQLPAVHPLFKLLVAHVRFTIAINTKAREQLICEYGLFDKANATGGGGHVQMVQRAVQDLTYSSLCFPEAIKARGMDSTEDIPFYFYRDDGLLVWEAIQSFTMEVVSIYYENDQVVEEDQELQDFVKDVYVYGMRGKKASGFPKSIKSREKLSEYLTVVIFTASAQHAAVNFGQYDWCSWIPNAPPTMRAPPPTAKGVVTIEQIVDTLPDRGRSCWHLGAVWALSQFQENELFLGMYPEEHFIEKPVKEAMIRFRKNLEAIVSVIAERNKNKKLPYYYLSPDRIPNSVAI
Test: Inhibitory activity against murine […].
pIC50: −log10 of the molar value.

{"columns": ["testSmiles", "pIC50"],
 "data": [
  ["O=C(/C=C/c1ccoc1)c1ccccn1", 4.86],
  ["O=C(/C=C/c1ccsc1)c1cccs1", 5.23],
  ["O=C(/C=C/c1ccco1)c1ccc(Cl)s1", 5.12],
  ["O=C(/C=C/c1ccccc1)c1ccccc1", 4.91],
  ["O=C(/C=C/c1cccs1)c1ccccc1", 5.02],
  ["CC1=C(C)C(=O)C(CCCCC#CCCCC#CCO)=C(C)C1=O", 7.49],
  ["O=C(/C=C/c1ccco1)c1ccco1", 4.89],
  ["O=C(/C=C/c1cccs1)c1cccs1", 5.32],
  ["O=C(/C=C/c1ccccc1)c1ccccn1", 5.09]
]}
